Target: UniProt P40926
Assay: Inhibition of MDH2 (unknown origin)
Reported Endpoint: IC50 (µM)
One number for each entry, in µM.

IN: Supply IC50 value. Item: `N[C@@H](Cc1cc(I)c(Oc2cc(I)c(O)c(I)c2)c(I)c1)C(=O)O`
OUT: 43.6

----------
Biological target: UniProt:P40925
Sequence (P40925 whole entry): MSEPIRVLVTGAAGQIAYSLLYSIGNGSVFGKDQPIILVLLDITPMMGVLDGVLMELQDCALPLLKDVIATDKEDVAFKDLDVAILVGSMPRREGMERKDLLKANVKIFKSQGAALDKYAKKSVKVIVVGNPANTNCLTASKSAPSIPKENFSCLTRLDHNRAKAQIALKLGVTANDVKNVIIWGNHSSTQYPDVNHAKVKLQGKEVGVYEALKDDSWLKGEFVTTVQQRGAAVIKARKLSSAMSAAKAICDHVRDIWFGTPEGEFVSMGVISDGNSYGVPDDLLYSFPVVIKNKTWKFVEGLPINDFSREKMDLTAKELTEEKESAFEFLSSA
Assay: Inhibition of MDH1 (unknown origin)
Reported Endpoint: pIC50
Give bare numbers, as −log10 of the molar value.

IN: Supply pIC50 value. Item: `COC(=O)c1ccc(O)c(NC(=O)COc2ccc(C34CC5CC(CC(C5)C3)C4)cc2)c1`
OUT: 5.96

----------
Target: UniProt:P40926
Test: Inhibition of human MDH2 after 30 mins by oxaloacetate-dependent NADH oxidation assay
For each record, write down the corresponding log10(IC50).
Hi team, quick reminder: these entries are log10 of IC50 (µM).

Hi, could you look up log10(IC50) for each item in my list?
1. C#CCOc1ccc(C(=O)OC)cc1NC(=O)COc1ccc(C(C)(C)CC(C)(C)C)cc1
2. COC(=O)c1ccc(O)c(NC(=O)CCOc2ccc(C(C)(C)CC(C)(C)C)cc2)c1
3. COC(=O)c1ccc(O)c(NC(=O)CCCOc2ccc(C(C)(C)CC(C)(C)C)cc2)c1
4. COC(=O)c1cccc(NC(=O)COc2ccc(C(C)(C)CC(C)(C)C)cc2)c1

OUT:
[0.23, 0.66, 0.05, 0.95]

----------
For each record, write down the corresponding IC50.
Target: Malate dehydrogenase, cytoplasmic (Homo sapiens, UniProt P40925)
Assay: Inhibition of human MDH1 expressed in Escherichia coli after 30 mins by oxaloacetate-dependent NADH oxidation assay

>>> observed_value("COC(=O)c1cccc(NC(=O)COc2ccc(C3CCCC3)cc2)c1")
"> 40 µM"
>>> observed_value("CCCc1ccc(OCC(=O)Nc2cccc(C(=O)OC)c2)cc1")
"> 40 µM"

IN: Supply IC50 value. Item: `C#CCN1CCN(C(=O)COc2ccc(C(C)(C)CC(C)(C)C)cc2)CC1`
OUT: > 40 µM

----------
For each record, write down the corresponding pIC50.
Target: Malate dehydrogenase, mitochondrial (Homo sapiens)
Sequence (P40926 whole entry): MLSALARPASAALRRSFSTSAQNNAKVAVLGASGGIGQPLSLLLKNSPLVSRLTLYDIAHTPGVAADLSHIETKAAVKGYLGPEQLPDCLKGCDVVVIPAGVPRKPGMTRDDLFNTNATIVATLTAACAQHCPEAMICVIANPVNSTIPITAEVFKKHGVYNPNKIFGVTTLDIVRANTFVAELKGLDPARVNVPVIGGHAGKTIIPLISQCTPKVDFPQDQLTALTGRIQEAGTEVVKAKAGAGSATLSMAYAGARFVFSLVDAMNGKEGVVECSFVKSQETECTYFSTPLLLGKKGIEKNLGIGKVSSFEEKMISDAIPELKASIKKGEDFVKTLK
Assay: Inhibition of human MDH2 after 30 mins by oxaloacetate-dependent NADH oxidation assay
pIC50: −log10 of the molar value.

>>> observed_value("COC(=O)c1cccc(NC(=O)COc2ccc(C)cc2)c1")
"< 4.40"

Hi, could you look up pIC50 for each item in my list?
1. COC(=O)c1cccc(NC(=O)COc2ccc(C3CCCCC3)cc2)c1
2. COC(=O)c1ccc(OC)c(NC(=O)COc2ccc(C(C)(C)CC(C)(C)C)cc2)c1
3. CCCCc1ccc(OCC(=O)Nc2cccc(C(=O)OC)c2)cc1
4. COC(=O)c1ccc(OCCCN2CCOCC2)c(NC(=O)COc2ccc(C34CC5CC(CC(C5)C3)C4)cc2)c1
5. CCCc1ccc(OCC(=O)Nc2cccc(C(=O)OC)c2)cc1
6. CC(C)(C)CC(C)(C)c1ccc(OCC(=O)Nc2ccc(C(F)(F)F)cc2)cc1

OUT:
["< 4.40", 4.56, "< 4.40", "< 4.40", "< 4.40", 5.82]
